Target: T1, TNFR1 (Homo sapiens, UniProt P19438)
T1 chain: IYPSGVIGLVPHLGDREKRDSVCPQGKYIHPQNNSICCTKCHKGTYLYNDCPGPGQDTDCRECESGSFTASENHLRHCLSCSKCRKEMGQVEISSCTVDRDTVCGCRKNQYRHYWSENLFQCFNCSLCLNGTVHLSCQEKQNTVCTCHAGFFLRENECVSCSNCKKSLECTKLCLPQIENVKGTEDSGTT
Test: yeast display SC50
Measurement kind: apparent Kd (screen) (nM)

P = Y13F (designed binder) SMEEEVEKAAKEFEKKKKEAIEKHLEKLKAKDKEAAERFLKELEEAAKEYAKDEAKTMSEEEAKRRAKKYKEKVLLSELSEEEQKEIKEAEEKLVRTILKYVEEAAK
Q = Q84L (designed binder) SMEEEVEKAAKEYEKKKKEAIEKHLEKLKAKDKEAAERFLKELEEAAKEYAKDEAKTMSEEEAKRRAKKYKEKVLLSELSEEELKEIKEAEEKLVRTILKYVEEAAK
R = E12I (designed binder) SMEEEVEKAAKIYEKKKKEAIEKHLEKLKAKDKEAAERFLKELEEAAKEYAKDEAKTMSEEEAKRRAKKYKEKVLLSELSEEEQKEIKEAEEKLVRTILKYVEEAAK
Hey, quick one: sort these by apparent Kd (screen), low to high? Quick reminder: the answer is the labels in the order asked.
P, R, Q
(P: 0.446 nM, R: 1.05 nM, Q: 2.48 nM)
